- Test system: P12-Ichikawa
- Method Summary: cell viability relative to DMSO control; higher = less cytotoxic
- Test Context: RPMI 5 mM glucose + 10% FBS; 48 h; 0.00234 µM
Criterion: cell viability strictly less than 90%. Met: Criterion met. Not met: Criterion not met.

Reference set, count: 5
{"Compound": "O=C(Nc1ccc(OC(F)(F)F)cc1)c1sccc1NCc1ccnc2ccccc12", "Assigned Category": "Criterion not met"}
{"Compound": "CC(C)C[C@H](CN)CC(=O)O", "Assigned Category": "Criterion not met"}
{"Compound": "C#CCN(C)[C@H](C)Cc1ccccc1", "Assigned Category": "Criterion met"}
{"Compound": "O=C1NC(=O)[C@@H](c2cn3c4c(cccc24)CCC3)[C@@H]1c1c[nH]c2ccccc12", "Assigned Category": "Criterion not met"}
{"Compound": "COc1cc2nccc(Oc3ccc(NC(=O)Nc4ccc(F)cc4F)c(F)c3)c2cc1OC", "Assigned Category": "Criterion not met"}

Prompt: Given NC1CCC(N[C@@H]2C[C@H]2c2ccccc2)CC1 (some centres undefined) , is recorded cell viability strictly lower than 90%?
Completion: Criterion not met

Prompt: API: query returns whether the compound falls strictly under 90% in cell viability. Query: COc1cc(N2CCC(O)CC2)ccc1Nc1cc(Nc2ccccc2[S+](=O)([O-])C(C)C)c2cc[nH]c2n1
Completion: Criterion met

Prompt: Answer whether the compound O=C1\C=C(/OC2=C1C=CC=C2C3=CC=CC=C3)N4CCOCC4 has cell viability strictly less than 90%
Completion: Criterion met

Prompt: Please indicate whether the reported cell viability of Cc1cc(O)c2c3c4c(cc(O)c13)C(C)(C)C(=O)c1c(O)cc(O)c(c1-4)C2=O is strictly below 90%.
Completion: Criterion not met
